Test system: TK-10
Test summary: NCI tumour cell line growth inhibition, 48 h
The source made the active and inactive calls. Cut-off read from the data, not from the text of the source: active = GI50 up to about 1.1 µM and inactive = higher. Residues, ends and D or L forms follow the SMILES beside them. *: point of attachment. Boc = CC(C)(C)OC(=O)*; OBn = c1ccc(CO*)cc1; Bn = c1ccc(C*)cc1
As shown below, each of these compounds has a reported GI50 value.

>>> value("Cc1ccc(S(=O)(=O)OC2CSSCC2OS(=O)(=O)c2ccc(C)cc2)cc1 (configuration not stated)")
"15.3 µM (inactive)"
>>> value("Cc1coc2c1C(OC(=O)C(C)C)C1(C)C(C)CCC(O)C1C2=O (configuration not stated)")
"> 100 µM (inactive)"
>>> value("O=C(NCc1ccccc1)c1cc2ccccc2o/c1=N\\c1ccccc1F")
"13.6 µM (inactive)"
>>> value("C1CCC2C(C1)CCCC2NC1=NCCO1 (configuration not stated)")
"> 100 µM (inactive)"
>>> value("COc1ccc2c3c(c(C(=O)O)oc13)CCC2")
"> 100 µM (inactive)"

// field: GI50; key: "Cc1cc(=O)oc2cc3oc(N(C)c4ccccc4)nc(=O)c3cc12" ; value = > 100 µM (inactive)

// field: GI50; key: "C(CCCCc1nnc(N2CCOCC2)o1)CCCc1nnc(N2CCOCC2)o1" ; value = > 100 µM (inactive)

// field: GI50; key: "CN1CN(c2ccccc2)C2(CCN(CCc3csc4ccccc34)CC2)C1=O" ; value = 14 µM (inactive)

// field: GI50; key: "N=C(N)SCCc1cn2ccccc2n1" ; value = > 100 µM (inactive)

// field: GI50; key: O=C(CC1(O)C(=O)Nc2ccc([N+](=O)[O-])cc21)c1ccc2ccccc2c1 (configuration not stated) ; value = > 100 µM (inactive)

// field: GI50; key: "O=C1/C(=C/c2ccc([N+](=O)[O-])cc2)CNC/C1=C\c1ccc([N+](=O)[O-])cc1" ; value = 33.1 µM (inactive)

// field: GI50; key: "Sc1nnc(COc2ccc(Cl)cc2Cl)[nH]1" ; value = > 100 µM (inactive)

// field: GI50; key: CC(C)CC(NC(=O)C(Cc1ccccc1)NC(=O)C(COCc1ccccc1)NC(=O)OC(C)(C)C)C(=O)OCc1ccccc1 (stereo not drawn) (Boc-Ser(Bn)-Phe-Leu-OBn; configuration not given here) ; value = 34 µM (inactive)

// field: GI50; key: CC(SC(=S)N1CCCC1)C(=O)Nc1nnc(-c2ccc(Cl)cc2)o1 (configuration not stated) ; value = 50.4 µM (inactive)

* * *

Tested on: SK-MEL-2
Test summary: NCI tumour cell line growth inhibition, 48 h
The source made the active and inactive calls. Rule as the data show it: active = GI50 up to about 1.1 µM and inactive = higher. Residues, ends and D or L forms follow the SMILES beside them. *: point of attachment. Boc = CC(C)(C)OC(=O)*; OBn = c1ccc(CO*)cc1; Bn = c1ccc(C*)cc1
Recorded metric: GI50

>>> value("CCOC(=O)/C=C1\\Nc2ccccc2-n2nnnc21")
"> 100 µM (inactive)"
>>> value("Fc1ccc(/N=C2C=C/C(=N\\c3ccc(F)cc3)c3ccccc3\\2)cc1")
"> 100 µM (inactive)"
>>> value("FC(F)(F)c1ccccc1N1CCN(c2nc(-c3cccs3)nc3ccc(Br)cc23)CC1")
"24.9 µM (inactive)"
>>> value("COc1cc(CNc2ccc(C(C)C)cc2)cc(OC)c1OC")
"13 µM (inactive)"
>>> value("CC(Cl)(/C=C/Cl)C(Cl)/C=C/C(Cl)(CCl)CBr (stereo unspecified)")
"3.82 µM (inactive)"
>>> value("CCOP(=O)(OCC)/C(=C/n1c(=S)[nH]c2ccccc21)C(=O)OC")
"> 100 µM (inactive)"
>>> value("CCOC(=O)CC/C(=N/Nc1ccc(Cl)cc1[N+](=O)[O-])C(=O)OCC")
"> 100 µM (inactive)"
>>> value("COc1ccc2[nH]c3c(C)c4ccnc(NCCCN(C)CCCNc5ccc([N+](=O)[O-])c6[nH]c7ccccc7c(=O)c56)c4c(C)c3c2c1")
"0.731 µM (active)"

// field: GI50; key: Cc1cc(O)c(C=O)c(C)c1CCC1(C)C=Cc2cc(O)ccc2O1 (stereo unspecified) ; value = 24.1 µM (inactive)

// field: GI50; key: CC(C)CC(NC(=O)C(Cc1ccccc1)NC(=O)C(COCc1ccccc1)NC(=O)OC(C)(C)C)C(=O)OCc1ccccc1 (stereo not drawn) (Boc-Ser(Bn)-Phe-Leu-OBn; configuration not given here) ; value = 56.6 µM (inactive)
